Molecular target: hTRPV3 (Homo sapiens (Human), UniProt Q8NET8)
Sequence (Q8NET8 whole entry): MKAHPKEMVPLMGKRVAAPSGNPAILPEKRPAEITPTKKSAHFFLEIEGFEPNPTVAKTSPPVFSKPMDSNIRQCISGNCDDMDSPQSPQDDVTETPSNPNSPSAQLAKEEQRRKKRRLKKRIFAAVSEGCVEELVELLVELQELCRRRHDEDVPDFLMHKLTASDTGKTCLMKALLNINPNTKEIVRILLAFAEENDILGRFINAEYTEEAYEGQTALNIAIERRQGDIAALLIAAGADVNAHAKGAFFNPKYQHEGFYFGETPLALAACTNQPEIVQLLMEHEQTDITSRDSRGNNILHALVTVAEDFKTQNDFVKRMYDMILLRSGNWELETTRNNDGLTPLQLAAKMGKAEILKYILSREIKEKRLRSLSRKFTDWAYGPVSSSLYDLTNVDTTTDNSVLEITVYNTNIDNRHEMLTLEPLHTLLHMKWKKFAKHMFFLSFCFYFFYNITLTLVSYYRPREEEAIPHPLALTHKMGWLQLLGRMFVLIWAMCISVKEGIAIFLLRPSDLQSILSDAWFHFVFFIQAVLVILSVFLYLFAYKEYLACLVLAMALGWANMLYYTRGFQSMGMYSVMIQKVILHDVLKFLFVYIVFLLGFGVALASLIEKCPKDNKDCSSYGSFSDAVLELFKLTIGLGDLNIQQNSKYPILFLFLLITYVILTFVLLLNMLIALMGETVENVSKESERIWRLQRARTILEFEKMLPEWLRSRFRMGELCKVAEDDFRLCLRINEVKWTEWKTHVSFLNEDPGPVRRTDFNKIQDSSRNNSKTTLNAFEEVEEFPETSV
Assay: Whole-cell patch clamp, hTRPV3 Phase 1 / Phase 2 currents
Type: cell-based
Settings: Phase 1 current, human TRPV3; read-out: hTRPV3 (nM) Phase 1
Counter-ions that a name gives are not always drawn.
observed-property: IC50 (nM)
Field format: number, assumed nM, no unit text.

Cc1cccnc1CN1CCC(c2ccc(Oc3ccccc3C(C)C)cc2CO)C1 (stereo not shown) [Compound 2-89, hydrochloride] :: 1230
CCOc1ccccc1-c1ccc(C2CCN(C(=O)c3ccc(F)cn3)C2)c(CO)c1 (stereo not shown) [Compound 2-59] :: 62.1
CC(C)c1ccccc1Oc1ccc(C2CCN(C(=O)c3ncccc3Cl)C2)c(C(N)=O)c1 (stereo not shown) [Compound 2-26] :: 217
CC(C)c1ccccc1Oc1ccc(C2CCN(Cc3ccc(Cl)cn3)C2)c(CO)c1 (stereo not shown) [Compound 2-91] :: 325
O=C(c1cccc(Cl)n1)N1CCC(c2ccc(-c3ccccc3C3CC3)cc2CO)C1 (stereo not shown) [Compound 2-57] :: 7.34
CC(C)c1ccccc1-c1ccc(C2CCN(C(=O)c3ccc(Cl)cn3)C2)c(CO)c1 (stereo not shown) [Compound 2-30] :: 2.68
CC(C)c1ccccc1Oc1ccc(C2CC(=O)N(Cc3ccccn3)C2)c(CO)c1 (stereo not shown) [Compound 2-93] :: 205
Cc1cncc(C(=O)N2CCC(c3ccc(-c4ccccc4C4CC4)cc3CO)C2)n1 (stereo not shown) [Compound 2-109] :: 18.2

Exercise: Can you look up the measured IC50 of CC(C)c1ccccc1-c1ccc(C2CCN(C(=O)c3ccccn3)C2)c(C(N)=O)c1 (stereo not shown) [Compound 2-45] for me?
Key: 929

Exercise: Likewise for CCc1ccccc1-c1ccc(C2CCN(C(=O)c3ccc(F)cn3)C2)c(C(N)=O)c1 (stereo not shown) [Compound 2-34] ?
Key: 337

Exercise: Likewise for CC(C)c1ccccc1-c1ccc(C2CCN(C(=O)c3ccc(F)cn3)C2)c(CO)c1 (stereo not shown) [Compound 2-29] ?
Key: 6.03

Exercise: Likewise for Cc1cccc(C(=O)N2CCC(c3ccc(Oc4ccccc4C(C)C)cc3C(N)=O)C2)n1 (stereo not shown) [Compound 2-33] ?
Key: 645

Exercise: Likewise for CC(C)c1ccccc1Oc1ccc(C2CCN(Cc3ncccc3Cl)C2)c(CO)c1 (stereo not shown) [Compound 2-92, hydrochloride] ?
Key: 592

###

Assay: Aqueous solubility assay in Normal Ringer Solution
Details: saline or isotonic, kinetic from dmso stock
observed-property: solubility at 40 min

Exercise: Can you look up the measured solubility at 40 min of OCc1cc(C(O)c2ccccc2Cl)ccc1N1CC[C@H](Oc2ncccc2Cl)C1 (stereo partly shown) for me?
Key: ~4.7 µM

###

Target: hTRPV3 (Homo sapiens (Human))
Assay: Whole-cell patch clamp, hTRPV3 Phase 1 / Phase 2 currents
Format: cell-based
Conditions: Phase 1 current, inward, whole-cell patch clamp; read-out: hTRPV3 Patch P1 Inwd
Documented IC50 across a set of molecules

Exercise: Can you look up IC50 on hTRPV3 (Homo sapiens (Human)) for NC(=O)c1cc(C(O)c2ccccc2)ccc1N1CC[C@H](Oc2ncccc2Cl)C1 (some centres unmarked) [Compound 1-137] ?
Key: > 1 µM

Exercise: Likewise for CC(C)c1ccccc1Oc1ccc(C2CCN(C(=O)c3cccc(Cl)n3)C2)c(CO)c1 (centres unmarked) [Compound 2-20] ?
Key: 0.01 to 0.1 µM
